Catalogue of pIC50 readings, one per entry.
Tested on: MOLT-4 cells
assayExplanation: MOLT-4 Cell Proliferation Assay (CellTiter-Glo)
Format: cell-based
conditionSummary: Homo sapiens, 72 h, read-out: MOLT-4 CTG IC50
pIC50: −log10 of the molar value.

Worked cases, answers included:
molecule: CC1(C)CCC(CN2CCN(c3ccc(C(=O)NS(=O)(=O)c4ccc(N[C@H](CCN5CCN(CCCCCNc6ccc7c(c6)C(=O)N(C6CCC(=O)NC6=O)C7=O)CC5)CSc5ccccc5)c(S(=O)(=O)C(F)(F)F)c4)cc3)CC2)=C(C23CC(C(F)F)(C2)C3)C1 (stereo partly shown)
pIC50: 6.82 to 7.30

molecule: CN(CCCNc1cccc2c1C(=O)N(C1CCC(=O)NC1=O)C2=O)CC[C@H](CSc1ccccc1)Nc1ccc(S(=O)(=O)NC(=O)c2ccc(N3CCN(CC4=C(C56CC(C(F)F)(C5)C6)CC(C)(C)CC4)CC3)cc2)cc1S(=O)(=O)C(F)(F)F (stereo partly shown)
pIC50: 6.82 to 7.30

molecule: CC1(C)CCC(c2ccc(Cl)cc2)=C(CN2CCN(c3ccc(C(=O)NS(=O)(=O)c4ccc(N[C@H](CCN5CCOCC5)CSc5ccccc5)c(S(=O)(=O)C(F)(F)F)c4)cc3)CC2)C1 [ABT-263, navitoclax, reference compound]
pIC50: 6.82 to 7.30

molecule: CC1(C)CCC(CN2CCN(c3ccc(C(=O)NS(=O)(=O)c4ccc(N[C@H](CCN5CCN(CCCCc6ccc7c(c6)C(=O)N(C6CCC(=O)NC6=O)C7=O)CC5)CSc5ccccc5)c(S(=O)(=O)C(F)(F)F)c4)cc3)CC2)=C(C23CC(C(F)F)(C2)C3)C1 (stereo partly shown)
pIC50: ≥ 7.30

molecule: Cc1ncsc1-c1ccc(CNC(=O)[C@@H]2C[C@@H](O)CN2C(=O)[C@@H](NC(=O)CCCCCC(=O)N2CCN(CC[C@H](CSc3ccccc3)Nc3ccc(S(=O)(=O)NC(=O)c4ccc(N5CCN(CC6=C(C78CC(C(F)F)(C7)C8)CC(C)(C)CC6)CC5)cc4)cc3S(=O)(=O)C(F)(F)F)CC2)C(C)(C)C)cc1
pIC50: ≤ 6.82

Q. Give reported pIC50 for CC1(C)CCC(CN2CCN(c3ccc(C(=O)NS(=O)(=O)c4ccc(N[C@H](CCN5CCN(CCCCCOc6cccc7c6C(=O)N(C6CCC(=O)NC6=O)C7=O)CC5)CSc5ccccc5)c(S(=O)(=O)C(F)(F)F)c4)cc3)CC2)=C(C23CC(C(F)F)(C2)C3)C1 (stereo partly shown) (MOLT-4 cells)
A. ≥ 7.30

Q. Give reported pIC50 for CC1(C)CCC(CN2CCN(c3ccc(C(=O)NS(=O)(=O)c4ccc(N[C@H](CCN5CCN(CCCCCNc6cccc7c6C(=O)N(C6CCC(=O)NC6=O)C7=O)CC5)CSc5ccccc5)c(S(=O)(=O)C(F)(F)F)c4)cc3)CC2)=C(C23CC(C(F)F)(C2)C3)C1 (stereo partly shown) (MOLT-4 cells)
A. ≥ 7.30
